The measurements presented in this section are drawn from patent US20230027361A1.

# targetDesc: METTL3/METTL14 (Homo sapiens, UniProt Q86U44)
# Sequence (Q86U44 whole entry, species assumed): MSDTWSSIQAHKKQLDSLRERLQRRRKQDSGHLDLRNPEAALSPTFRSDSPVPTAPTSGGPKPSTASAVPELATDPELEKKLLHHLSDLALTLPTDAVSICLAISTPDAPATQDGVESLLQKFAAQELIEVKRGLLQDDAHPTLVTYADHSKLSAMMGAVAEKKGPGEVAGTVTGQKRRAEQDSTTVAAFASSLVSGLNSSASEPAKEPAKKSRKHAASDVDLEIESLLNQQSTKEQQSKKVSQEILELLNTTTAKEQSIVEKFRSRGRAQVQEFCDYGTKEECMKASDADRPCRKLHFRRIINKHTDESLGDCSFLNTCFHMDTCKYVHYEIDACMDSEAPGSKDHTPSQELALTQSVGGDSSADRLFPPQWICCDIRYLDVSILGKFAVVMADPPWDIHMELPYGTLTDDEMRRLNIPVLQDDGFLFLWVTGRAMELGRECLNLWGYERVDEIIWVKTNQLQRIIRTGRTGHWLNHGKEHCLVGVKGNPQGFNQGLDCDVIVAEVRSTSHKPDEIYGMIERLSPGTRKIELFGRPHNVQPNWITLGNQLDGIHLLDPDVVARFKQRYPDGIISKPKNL
# Sequence (Q9HCE5 whole entry partner, species assumed): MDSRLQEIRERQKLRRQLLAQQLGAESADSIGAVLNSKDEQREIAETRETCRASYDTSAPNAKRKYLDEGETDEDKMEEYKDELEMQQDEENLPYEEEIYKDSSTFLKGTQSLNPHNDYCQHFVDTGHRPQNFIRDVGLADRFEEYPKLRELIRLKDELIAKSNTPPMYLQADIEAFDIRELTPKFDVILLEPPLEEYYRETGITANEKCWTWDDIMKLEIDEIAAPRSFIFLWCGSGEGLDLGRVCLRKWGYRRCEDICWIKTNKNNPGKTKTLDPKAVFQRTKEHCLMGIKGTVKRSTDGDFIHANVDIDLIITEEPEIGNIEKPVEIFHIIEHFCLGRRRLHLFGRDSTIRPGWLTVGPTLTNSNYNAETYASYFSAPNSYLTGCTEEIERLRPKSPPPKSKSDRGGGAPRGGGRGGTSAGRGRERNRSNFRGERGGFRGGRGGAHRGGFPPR
# assay: METTL3-14 Standard Enzyme Assay (METTL3 biochemical assay)
# experimentalContext: METTL3 biochemical assay; read-out: METTL3 IC50
pIC50: −log10 of the molar value.

| smi | pIC50 |
| --- | --- |
| Nc1ncnc2c1ccn2[C@@H]1C[C@H](CCc2ccc3[nH]ccc3c2)[C@@H](O)[C@H]1O | < 6.00 |
| CNc1ccc2sc(CC[C@H]3O[C@@H](n4ccc5c(N)ncnc54)[C@@H](F)[C@@H]3O)cc2n1 | 7.00 to 8.00 |
| CC(C)Nc1ccc2ccc(CC[C@H]3C[C@@H](n4ccc5c(N)ncnc54)[C@H](O)[C@@H]3O)cc2n1 | 7.00 to 8.00 |
| CN(C)c1ccc2ccc(OC[C@H]3O[C@@H](n4cc(C5CCCC5)c5c(N)ncnc54)[C@H](O)[C@@H]3O)cc2n1 | > 8.00 |
| Cc1cn([C@@H]2O[C@H](COc3ccc4ccc(NCC5CC5)nc4c3)[C@@H](O)[C@H]2O)c2ncnc(N)c12 | < 6.00 |
| CNc1ccc2ccc(OC[C@H]3O[C@@H](n4cc(C5CCCC5)c5c(N)ncnc54)[C@H](O)[C@@H]3O)cc2n1 | > 8.00 |
| CCc1cc(N(C)C2CC2)c2ccc(OC[C@H]3O[C@@H](n4ccc5c(N)ncnc54)C[C@@H]3O)cc2n1 | 7.00 to 8.00 |
